List of Redox potential values.
assay: Redox potential of the compound in alcohol-water solution; settings: buffer
Could you give me the number in V? Just the number is fine.

Here are 10 compounds together with their reported answers.
{"mol.smiles": "COC1=C/C(=N\\O)C=CC1=O", "Redox potential [V]": 0.521}
{"mol.smiles": "CN(C)c1ccc(N=C2C=CC(=O)C=C2)cc1", "Redox potential [V]": 0.628}
{"mol.smiles": "O=C1C=C/C(=N/O)C(I)=C1", "Redox potential [V]": 0.531}
{"mol.smiles": "O=C1C=C/C(=N/O)C(Cl)=C1", "Redox potential [V]": 0.537}
{"mol.smiles": "O=C1C(Br)=CC(=NCl)C=C1Br", "Redox potential [V]": 0.665}
{"mol.smiles": "O=C1C=CC(=NCl)C=C1", "Redox potential [V]": 0.652}
{"mol.smiles": "COC1=C/C(=N\\c2ccc(N(C)C)cc2)C=CC1=O", "Redox potential [V]": 0.561}
{"mol.smiles": "CC1=C/C(=N\\c2ccc(N(C)C)cc2)C=CC1=O", "Redox potential [V]": 0.604}
{"mol.smiles": "CN(C)c1ccc(/N=C2/C=CC(=O)C(Cl)=C2)cc1", "Redox potential [V]": 0.658}
{"mol.smiles": "O=C1C(Br)=CC(=NBr)C=C1Br", "Redox potential [V]": 0.678}

Consider the additional compound presented here.
Record request: Redox potential value, item O=C1C(Cl)=CC(=NCl)C=C1Cl
0.659

Origin of measurements: ChEMBL document CHEMBL3271988
